Test system: SK-HEP1
METHOD: Antiproliferative activity against human SK-HEP1 cells assessed as inhibition of cell growth incubated for 72 hrs by MTT assay
Assay type: functional, cell-based
EXPERIMENTAL_CONDITIONS: SK-HEP1, 72 h
READOUT_KIND: pIC50
Units for pIC50: none; it is -log10 of a concentration expressed in mol/L.

Req: Name the reported pIC50 value associated with the molecule CCCCCCCCc1c2[n+](cc3c(NCCN(C)C)c(OC)ccc13)CCc1cc3c(cc1-2)OCO3.[Cl-]
Resp: 5.97

---

System: Quadruplex DNA
METHOD: Binding affinity to c-MYC G4-quadruplex DNA (unknown origin) using fluorescent tagged FPu18T model assessed as stabilization by measuring change in melting temperature at 2 uM by fluorescence based analysis
Type: nucleic-acid assay
READOUT_KIND: ΔTm (°C)

CCCCCCCCc1c2[n+](cc3c(NCCCN4CCCC4)c(OC)ccc13)CCc1cc3c(cc1-2)OCO3 : 23.1

(I) COc1ccc2cc3[n+](cc2c1OC)CCc1cc2c(cc1-3)OCO2 [BERBERINE]
(II) CCCCCCCCc1c2[n+](c3c4c(c(OC)ccc14)N(CCN(C)C)C=C3)CCc1cc3c(cc1-2)OCO3
Req: Which has the higher ΔTm, I or II ? Respond using the label that marks the chosen record.
Resp: II
(II: 21.8 °C, I: 1.6 °C)
